# Tested on: HepG2
# Protocol details: cytotoxicity call (relative viability < 0.9)
# Assay setup: 10 µM
Out of some 39,000 compounds screened, about 3,300 (8.5%) were called active. This excerpt belongs to a sample that is enriched for actives.
Possible outcomes: Y for active, N for inactive

In [3]: df
Out[3]:
                             compound_string  assay_target  assigned_label
 0  C[C@@H]1CN([C@@H](C)CO)C(=O)c2cc(NC(=O)C3CCCCC3)ccc2O[C@@H](C)CCCCO[C@H]1CN(C)C(=O)Nc1cccc2ccccc12         HepG2               N
 1  O=C1OC2(c3ccc(O)cc3Oc3cc(O)ccc32)c2ccccc21         HepG2               N
 2  C[C@@H]1CN([C@@H](C)CO)C(=O)c2cc(NC(=O)C3CCCCC3)ccc2O[C@@H](C)CCCCO[C@@H]1CN(C)C(=O)Nc1cccc2ccccc12         HepG2               Y
 3  CCCNC(=O)Nc1ccc2c(c1)OC[C@H](C)N(C(=O)C1CCOCC1)C[C@H](C)[C@@H](OC)CN(C)C2=O         HepG2               N
 4  C[C@@H]1CN([C@@H](C)CO)C(=O)c2cc(NC(=O)c3ccncc3)ccc2O[C@@H](C)CCCCO[C@H]1CN(C)S(C)(=O)=O         HepG2               N
 5  COc1ccc(S(=O)(=O)Nc2ccc3c(c2)C(=O)N([C@H](C)CO)C[C@@H](C)[C@H](CN(C)Cc2ccccc2)OCCCC[C@H](C)O3)cc1         HepG2               N
 6  O=C1OC(c2cc(I)c(O)c(I)c2)(c2cc(I)c(O)c(I)c2)c2ccccc21         HepG2               N
 7  COc1ccc([C@H]([C@@H](O)Cc2ccccc2)N(CC#C[C@@H](O)c2ccccc2)[C@@H](Cc2ccccc2)C(OC)OC)cc1         HepG2               N
 8  COc1ccc(NC(=O)Nc2cccc3c2O[C@H](CN(C)Cc2ccc(Oc4ccccc4)cc2)[C@H](C)CN([C@H](C)CO)C3=O)cc1         HepG2               N
 9  COc1ccc(S(=O)(=O)N2C[C@@H](O)COC[C@H]3O[C@H](CC(=O)N[C@H]4CCN(Cc5ccccc5)C4)CC[C@@H]32)cc1         HepG2               N
10  C[C@@H]1CN([C@@H](C)CO)C(=O)c2c(c3ccccc3n2C)-c2ccccc2CO[C@H]1CN(C)C(=O)c1cc(Cl)cc(Cl)c1         HepG2               N
11  C[C@H]1CN([C@@H](C)CO)C(=O)c2cccc(NC(=O)C3CC3)c2O[C@@H]1CN(C)S(=O)(=O)c1ccccc1         HepG2               N
12  COCC#Cc1cnc2c(c1)C(=O)N([C@H](C)CO)C[C@@H](C)[C@@H](CN(C)C(=O)CCN1CCCCC1)O2         HepG2               N
13  COc1ccc([C@H]([C@@H](O)Cc2ccccc2)N(CC#C[C@@H](O[Si](c2ccccc2)(c2ccccc2)C(C)(C)C)c2ccccc2)[C@@H](Cc2ccccc2)C(OC)OC)cc1         HepG2               N
14  C[C@@H]1CN([C@H](C)CO)C(=O)c2c(c3ccccc3n2C)-c2ccccc2CO[C@H]1CN(C)C(=O)c1cc(Cl)cc(Cl)c1         HepG2               N
15  COc1ccc([C@H]([C@H](Cc2ccccc2)OC(C)=O)N(C/C=C\[C@@H](O)c2ccccc2)[C@@H](Cc2ccccc2)C(OC)OC)cc1         HepG2               N
16  C[C@H]1CN([C@@H](C)CO)C(=O)c2c(c3ccccc3n2C)-c2ccccc2CO[C@@H]1CN(C)C(=O)c1cc(Cl)cc(Cl)c1         HepG2               N
17  COc1ccc(S(=O)(=O)Nc2ccc3c(c2)C(=O)N([C@H](C)CO)C[C@@H](C)[C@@H](CN(C)S(=O)(=O)c2ccc(C)cc2)O3)cc1         HepG2               N
18  C[C@H](CO)N1C[C@H](C)[C@@H](CN(C)CC2CC2)Oc2ccc(NS(=O)(=O)c3cccs3)cc2CC1=O         HepG2               N
19  O=C(C[C@@H]1C[C@H]2c3cc(NS(=O)(=O)c4ccc(F)cc4)ccc3O[C@H]2[C@H](CO)O1)NCc1cccc(F)c1         HepG2               N
20  Cc1ccc(S(=O)(=O)Nc2ccc3c(c2)CC(=O)N([C@@H](C)CO)C[C@@H](C)[C@@H](CN(C)C(=O)NC(C)C)O3)cc1         HepG2               N
21  C[C@H](CO)N1C[C@H](C)[C@H](CN(C)Cc2ccc(-c3ccccc3)cc2)Oc2c(NC(=O)Nc3ccc4c(c3)OCO4)cccc2C1=O         HepG2               N
22  C[C@H](CO)N1C[C@H](C)[C@@H](CN(C)C(=O)c2cc(Cl)cc(Cl)c2)OCc2ccccc2-c2c(n(C)c3ccccc23)C1=O         HepG2               Y
23  C[C@@H]1CN([C@@H](C)CO)C(=O)c2c(c3ccccc3n2C)-c2ccccc2CO[C@@H]1CN(C)C(=O)c1cc(Cl)cc(Cl)c1         HepG2               Y
24  O=C(C[C@H]1C=C[C@@H](NC(=O)c2ccc3c(c2)OCO3)[C@@H](CO)O1)NCc1ccc(Oc2ccccc2)cc1         HepG2               N
25               CC(C)CN1C[C@H](C(=O)O)CC1=O         HepG2               N
26  C[C@@H]1CCCCO[C@H](CN(C)C(=O)Nc2cccc3ccccc23)[C@H](C)CN([C@@H](C)CO)C(=O)c2cc(NC(=O)C3CCCCC3)ccc2O1         HepG2               N
27  C[C@@H]1CN([C@@H](C)CO)C(=O)c2cc(NC(=O)Nc3ccccc3)ccc2O[C@@H](C)CCCCO[C@H]1CN(C)C(=O)CCC(F)(F)F         HepG2               N
28  CCN1CCC(N(C)S(=O)(=O)c2cn(C)c(=O)n(C)c2=O)CC1         HepG2               N

----------
# System: HepG2
# Protocol details: cytotoxicity call (relative viability < 0.9)
# Assay setup: 10 µM
The whole screen tested about 39,000 compounds, of which about 3,300 (8.5%) were called active. Many of the other results were omitted from the sample, so actives are more common in it than they were.
Possible outcomes: 1 (yes) for active, 0 (no) for inactive

>>> print(df.to_string())
                            compound_string  assay_target  assigned_label
0  C[C@@H]1CCCCO[C@H](CN(C)C(=O)Nc2ccc(F)cc2)[C@H](C)CN([C@H](C)CO)C(=O)c2cc(NC(=O)Nc3ccc(F)cc3)ccc2O1         HepG2          0 (no)
1  C[C@@H]1CN([C@@H](C)CO)C(=O)c2cc(NC(=O)Nc3cccc4ccccc34)ccc2O[C@H]1CN(C)Cc1ccc(Cl)c(Cl)c1         HepG2          0 (no)
2  C[C@@H]1CN([C@H](C)CO)C(=O)Cc2cc(NC(=O)Nc3cccc4ccccc34)ccc2O[C@@H]1CN(C)Cc1ccc(Cl)c(Cl)c1         HepG2         1 (yes)
3  C[C@@H]1CN([C@H](C)CO)C(=O)c2cc(NC(=O)Nc3cccc4ccccc34)ccc2O[C@@H]1CN(C)Cc1ccc(Cl)c(Cl)c1         HepG2          0 (no)
4  C[C@@H]1CN([C@H](C)CO)C(=O)Cc2cc(NC(=O)Nc3cccc4ccccc34)ccc2O[C@H]1CN(C)Cc1ccc(Cl)c(Cl)c1         HepG2          0 (no)
5  C[C@H](CO)N1C[C@H](C)[C@H](CN(C)Cc2ccc(Cl)c(Cl)c2)Oc2ccc(NC(=O)Nc3cccc4ccccc34)cc2CC1=O         HepG2          0 (no)
6                               OCCCn1cnnc1         HepG2          0 (no)
